// reported interaction score for each item listed
SUBJECT OF TEST: T1, 4H454-bN
T1 chain: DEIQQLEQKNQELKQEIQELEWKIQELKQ
MEASUREMENT DESCRIPTION: two-hybrid library CCNG1;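 note: natural log of median RNA to DNA barcode read ratio; higher means stronger binding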
Form rule: numeric answer, no unit written next to it.

The cases that follow already have their interaction score on record.
{"columns": ["BINDER", "ENDPOINT NAME", "OBS VALUE"],
 "data": [
  ["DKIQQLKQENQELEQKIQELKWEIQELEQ [4H2729-bN]", "interaction score", 1.43],
  ["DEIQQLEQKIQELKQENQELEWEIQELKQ [4H338-bN]", "interaction score", -0.967],
  ["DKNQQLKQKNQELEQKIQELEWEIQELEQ [4H4001-bN]", "interaction score", 0.0134]
]}

input: Look up interaction score for this binder: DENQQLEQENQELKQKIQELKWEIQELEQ [4H1257-bN]
output: 0.889

input: What value of interaction score has been reported for the following binder? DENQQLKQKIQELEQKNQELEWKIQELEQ [4H1845-bN]
output: -0.965

input: Value lookup for interaction score; key = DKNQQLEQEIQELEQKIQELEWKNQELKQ [4H3112-bN]
output: 0.745
